Attribution: ChEMBL document CHEMBL1201862

tested on: SF-295; experiment: NCI tumour cell line growth inhibition, 48 h
Active and inactive are the calls of the source. Cut-off read from the data, not from the text of the source: active = GI50 up to about 1.1 µM and inactive = higher.
Response enum: label 1 for active, label 0 for inactive

Use these answered entries as a reference point.
{"COMPOUND": "COC(=O)[C@H]1[C@H](OC(=O)[C@@H](OC)c2ccccc2)ON2CC[C@@H](OC(=O)c3ccccc3)[C@H]12", "CLASS LABEL": "label 0"}
{"COMPOUND": "CSc1nc(SC)c2ncn(C3CC(Oc4ccc(C)cc4)C(COc4ccc(C)cc4)O3)c2n1 (configuration not stated)", "CLASS LABEL": "label 0"}
{"COMPOUND": "C[C@@H](c1ccccc1)N1C[C@@H](c2ccc3c(c2)OCO3)[C@@H]2C(=O)CCC[C@@H]21", "CLASS LABEL": "label 0"}
{"COMPOUND": "FC1OC2OC1C(OCc1ccccc1)C(OCc1ccccc1)C2OCc1ccccc1 (configuration not stated)", "CLASS LABEL": "label 0"}
{"COMPOUND": "CCc1nc(N)nc(N)c1-c1ccc(Cc2ccccc2)c([N+](=O)[O-])c1", "CLASS LABEL": "label 1"}

Lookup: Give the logged outcome of this assay for the following compound: C1CNCCNCCNCCN1
Found: label 0

Lookup: Give the logged outcome of this assay for the following compound: O=C1CC(C(=O)O)Cc2c(Br)ccc(O)c21 (configuration not stated)
Found: label 0

Lookup: Give the logged outcome of this assay for the following compound: CN1N=C(c2ccncc2)OC1c1ccc(Cl)c(Cl)c1 (configuration not stated)
Found: label 0

###

tested on: HT-29; experiment: NCI tumour cell line growth inhibition, 48 h
Activity calls are given as the source filed them. Rule as the data show it: active = GI50 up to about 1.1 µM and inactive = higher. Peptide text beside a SMILES is read from it. * marks the point of attachment. Cbz = O=C(OCc1ccccc1)*
# GI50 values compiled below

{"COMPOUND": "CCCCc1cc2c(cc1O)CCC1C2CC[C@@]2(C)C1CC[C@@H]2O (stereo not given in full)", "MEASURED TARGET": "HT-29", "GI50": "23.2 µM (inactive)"}
{"COMPOUND": "CCOC(=O)C(C)NC(=O)C(C)NC(=O)C(C)NC(=O)C(C)NC(=O)C(C)NC(=O)C(C)NC(=O)C(C)NC(=O)OCc1ccccc1 (stereo not given) (Cbz-AAAAAAA-OEt; configuration not given here)", "MEASURED TARGET": "HT-29", "GI50": "> 100 µM (inactive)"}
{"COMPOUND": "S=C=Nc1ccc(CSc2nc3ccccc3[nH]2)cc1", "MEASURED TARGET": "HT-29", "GI50": "18.4 µM (inactive)"}
{"COMPOUND": "CCOC(=O)C/C(=N\\c1cc(C)on1)N(CC)CC.[O-][Cl+3]([O-])([O-])O", "MEASURED TARGET": "HT-29", "GI50": "> 100 µM (inactive)"}
{"COMPOUND": "Cc1nc2c(=O)[nH]c(=O)nc-2n(CCO)c1C", "MEASURED TARGET": "HT-29", "GI50": "> 100 µM (inactive)"}

Lookup: For the compound Cc1cc(C)c(OC(=O)Nc2cccc3ccccc23)c(-c2ccccc2)c1 , what GI50 is on record?
Found: 43.2 µM (inactive)

Lookup: For the compound CCOP(=O)(OCC)C(=C1C=C(C(C)(C)C)C(=O)C(C(C)(C)C)=C1)P(=O)(OCC)OCC , what GI50 is on record?
Found: > 10 µM (inactive)

Lookup: For the compound CCC(=O)c1cn(C)c(=O)c2ccccc12 , what GI50 is on record?
Found: > 100 µM (inactive)

Lookup: For the compound O=C1c2ccccc2C(=O)N1CCc1ncc[nH]1 , what GI50 is on record?
Found: > 100 µM (inactive)

Lookup: For the compound COc1ccc(CNc2nc(NCc3ccc(OC)cc3)nc(NC3CCCCC3)n2)cc1 , what GI50 is on record?
Found: 3.46 µM (inactive)
